Taken from patent EP0131315A2.

Experiment: Urinary excretion (bioavailability) after intravenous, oral and nasal administration in the rat; drug in urine determined by muscarinic receptor binding assay
Assay type: in vivo, male Sprague-Dawley rats
Settings: rat, urine, iv, 2 mg, intravenous, 2 mg/rat, hours 6-12, mean of 10 rats; read-out: amount of the compound found in the urine
endpoint: dose excreted at 12 h
The reply should read as a number followed by its unit.

According to the records, this molecule C[N+]1(CC2CC2)C2CC(OC(=O)C(CO)c3ccccc3)CC1C1OC12 (stereo not shown) [N-cyclopropylmethylscopolamine bromide] displays dose excreted at 12 h of 2.24%

====

Experiment: Urinary excretion (bioavailability) after intravenous, oral and nasal administration in the rat; drug in urine determined by muscarinic receptor binding assay
Format: in vivo, male Sprague-Dawley rats
Conditions: rat, urine, 2 mg, nasal, solution, 2 mg/rat, hours 0-24, mean of 10 rats; read-out: amount of the compound found in the urine
endpoint: dose excreted at 24 h (%)
State the answer as a number, implicitly in %.

compound C[N+]1(CC2CC2)C2CC(OC(=O)C(CO)c3ccccc3)CC1C1OC12 (stereo not shown) [N-cyclopropylmethylscopolamine bromide] , dose excreted at 24 h observed: 6.1
